Biological target: S. aureus DnaE (DNA polymerase III α-subunit homolog from Staphylococcus aureus) (Staphylococcus aureus)
Construct: SaDnaE (S. aureus DnaE residues 1-1065); 6xHis (N); made in house; host or cells: E. coli BL21-AI
Sequence (Q5HF71 1-1065): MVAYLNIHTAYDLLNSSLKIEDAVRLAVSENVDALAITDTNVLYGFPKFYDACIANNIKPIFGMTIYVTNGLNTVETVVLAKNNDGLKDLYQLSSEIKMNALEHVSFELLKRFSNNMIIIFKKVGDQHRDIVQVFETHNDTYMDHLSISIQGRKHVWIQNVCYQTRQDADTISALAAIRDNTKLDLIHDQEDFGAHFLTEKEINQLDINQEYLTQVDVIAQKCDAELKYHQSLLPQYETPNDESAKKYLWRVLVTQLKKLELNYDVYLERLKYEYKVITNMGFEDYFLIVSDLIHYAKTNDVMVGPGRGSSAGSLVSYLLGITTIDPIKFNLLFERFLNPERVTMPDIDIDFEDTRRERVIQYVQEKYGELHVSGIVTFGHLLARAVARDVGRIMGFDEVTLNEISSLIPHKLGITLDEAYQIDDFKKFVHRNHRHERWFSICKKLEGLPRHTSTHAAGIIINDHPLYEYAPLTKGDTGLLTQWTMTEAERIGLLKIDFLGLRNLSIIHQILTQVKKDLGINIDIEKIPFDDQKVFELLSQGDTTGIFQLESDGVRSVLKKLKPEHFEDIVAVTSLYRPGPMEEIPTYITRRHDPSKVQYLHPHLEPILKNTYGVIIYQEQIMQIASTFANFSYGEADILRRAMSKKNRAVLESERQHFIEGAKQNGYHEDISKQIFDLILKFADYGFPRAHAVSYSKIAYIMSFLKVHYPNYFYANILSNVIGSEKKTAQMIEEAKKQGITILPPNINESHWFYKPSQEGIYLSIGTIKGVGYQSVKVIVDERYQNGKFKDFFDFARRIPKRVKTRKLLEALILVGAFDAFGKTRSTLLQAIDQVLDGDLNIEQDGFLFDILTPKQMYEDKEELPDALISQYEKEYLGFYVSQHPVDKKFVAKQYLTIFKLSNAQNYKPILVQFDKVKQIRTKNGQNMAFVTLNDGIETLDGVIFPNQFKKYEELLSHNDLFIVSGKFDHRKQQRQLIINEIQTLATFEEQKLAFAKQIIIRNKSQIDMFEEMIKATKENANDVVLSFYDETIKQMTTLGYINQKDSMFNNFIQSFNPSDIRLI
Test: biochemical
Type: biochemical
Details: read-out: S. aureus DnaE IC50 (converted)
Protocol: Plasmids encoding EcDnaE (E. coli DnaE residues 1-1160) and SaDnaE (S. aureus DnaE residues 1-1065) with 6×His N-terminal tags, were overexpressed in BL21(DE3) and BL21-AI cells (Invitrogen), respectively. Cells were grown in LB media to an OD ˜0.45 pelleted and then resuspended in Minimal Media, as described in Pryor et al. (1997, Protein Expr Purif. 10:309-19), and inducer (0.4 mM IPTG or 0.2% arabinose) for 21 hours at 18° C. at 220 rpm. […]
Would you kindly list IC50 for each of these compounds?
Hi! Could you send only the number? It should be in µM, unit omitted.

Entry under test: CO[C@H]1C[C@H]2C=C[C@H]3[C@H]4O[C@]2(/C(C)=C/[C@@H](C)[C@@H]([C@@H](C)O)OC1=O)[C@@H]3[C@H](O)C(C)[C@@H]4NCCN1CCCCC1.O=C(O)C(F)(F)F (stereo partly drawn) . Its IC50 was 32.5

Note to self: IC50 recorded for CO[C@H]1C[C@H]2C=C[C@H]3[C@H]4O[C@]2(/C(C)=C/[C@@H](C)[C@@H]([C@@H](C)O)OC1=O)[C@@H]3C(=O)C(C)[C@H]4C#N (stereo partly drawn) was 25.6

CO[C@H]1C[C@H]2C=C[C@H]3[C@H]4O[C@]2(/C(C)=C/[C@@H](C)[C@@H]([C@@H](C)O)OC1=O)[C@@H]3[C@H](O)C(C)[C@@H]4NCCN.O=C(O)C(F)(F)F (stereo partly drawn) yielded IC50 of 2.59

###

Biological target: S. aureus DnaE (DNA polymerase III α-subunit homolog from Staphylococcus aureus) (Staphylococcus aureus)
Construct: SaDnaE (S. aureus DnaE residues 1-1065); 6xHis (N); made in house; host or cells: E. coli BL21-AI
Sequence (Q5HF71 1-1065): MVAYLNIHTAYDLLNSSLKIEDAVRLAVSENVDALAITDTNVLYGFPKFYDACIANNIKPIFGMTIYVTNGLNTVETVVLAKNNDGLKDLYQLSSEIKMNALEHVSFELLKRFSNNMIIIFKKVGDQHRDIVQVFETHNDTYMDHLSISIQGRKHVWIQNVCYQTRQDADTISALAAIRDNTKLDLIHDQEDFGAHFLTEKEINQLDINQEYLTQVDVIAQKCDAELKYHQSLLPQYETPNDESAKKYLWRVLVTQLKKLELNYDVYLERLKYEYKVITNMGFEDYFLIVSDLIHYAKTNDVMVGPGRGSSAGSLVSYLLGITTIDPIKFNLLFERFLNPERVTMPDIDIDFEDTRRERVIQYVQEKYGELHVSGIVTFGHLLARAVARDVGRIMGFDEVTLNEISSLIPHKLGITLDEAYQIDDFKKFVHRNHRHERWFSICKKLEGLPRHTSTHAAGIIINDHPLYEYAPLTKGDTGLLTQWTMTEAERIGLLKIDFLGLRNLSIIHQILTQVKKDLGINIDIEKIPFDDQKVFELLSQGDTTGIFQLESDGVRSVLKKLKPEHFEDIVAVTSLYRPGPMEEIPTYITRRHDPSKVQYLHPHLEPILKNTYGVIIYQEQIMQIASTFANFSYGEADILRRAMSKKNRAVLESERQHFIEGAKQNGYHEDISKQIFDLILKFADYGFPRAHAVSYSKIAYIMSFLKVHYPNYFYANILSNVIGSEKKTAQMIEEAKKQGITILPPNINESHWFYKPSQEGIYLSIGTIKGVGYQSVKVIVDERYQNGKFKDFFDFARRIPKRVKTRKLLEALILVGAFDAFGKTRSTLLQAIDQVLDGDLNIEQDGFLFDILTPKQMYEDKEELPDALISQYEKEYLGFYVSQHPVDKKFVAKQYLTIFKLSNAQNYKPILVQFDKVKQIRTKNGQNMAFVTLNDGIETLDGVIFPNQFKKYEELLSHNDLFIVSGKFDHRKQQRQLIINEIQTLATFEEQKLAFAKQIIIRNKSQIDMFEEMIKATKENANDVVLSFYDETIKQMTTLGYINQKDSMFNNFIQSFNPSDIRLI
Assay: biochemical
Type: biochemical
Details: S. aureus DnaE IC50
pIC50: −log10 of the molar value.
Answer each item with its documented pIC50.

Sample `CO[C@H]1C[C@H]2C=C[C@H]3[C@H]4O[C@]2(/C(C)=C/[C@@H](C)[C@@H]([C@@H](C)O)OC1=O)[C@@H]3C(=O)[C@@H](C)[C@H]4OC(=O)c1ccc[nH]1` ; pIC50 observed: 5.93

Reported pIC50 ( CO[C@H]1CC2C=C[C@H]3[C@H]4O[C@]2(/C(C)=C/[C@@H](C)[C@@H](/C(C)=N\O)OC1=O)[C@@H]3[C@H](O)[C@@H](C)[C@H]4OC(=O)c1ccc[nH]1 (stereo partly shown) ) = > 7.94

Summary for this compound, CO[C@H]1CC2C=C[C@H]3[C@H]4O[C@]2(/C(C)=C/[C@@H](C)[C@@H](C(C)=O)OC1=O)[C@@H]3[C@H](O)[C@@H](C)[C@H]4OC(=O)c1ccc[nH]1 (stereo partly shown) : pIC50 is > 7.93

pIC50 for `CO[C@H]1C[C@H]2C=CC3C4[C@H](O)[C@@H](C)[C@@H](OC(=O)c5ccc[nH]5)[C@@H]3O[C@]42/C(C)=C/[C@@H](C)[C@@H]([C@@H](C)OC(=O)C(=O)OCCN2CCCCC2)OC1=O.O=C(O)C(F)(F)F` is > 8.13

###

Target: E. coli DnaE (DNA polymerase III α-subunit from Escherichia coli) (Escherichia coli, UniProt P10443)
Construct: EcDnaE (E. coli DnaE residues 1-1160); 6xHis (N); made in house; host or cells: E. coli BL21(DE3)
Sequence (P10443 whole entry, the tested form may be a part): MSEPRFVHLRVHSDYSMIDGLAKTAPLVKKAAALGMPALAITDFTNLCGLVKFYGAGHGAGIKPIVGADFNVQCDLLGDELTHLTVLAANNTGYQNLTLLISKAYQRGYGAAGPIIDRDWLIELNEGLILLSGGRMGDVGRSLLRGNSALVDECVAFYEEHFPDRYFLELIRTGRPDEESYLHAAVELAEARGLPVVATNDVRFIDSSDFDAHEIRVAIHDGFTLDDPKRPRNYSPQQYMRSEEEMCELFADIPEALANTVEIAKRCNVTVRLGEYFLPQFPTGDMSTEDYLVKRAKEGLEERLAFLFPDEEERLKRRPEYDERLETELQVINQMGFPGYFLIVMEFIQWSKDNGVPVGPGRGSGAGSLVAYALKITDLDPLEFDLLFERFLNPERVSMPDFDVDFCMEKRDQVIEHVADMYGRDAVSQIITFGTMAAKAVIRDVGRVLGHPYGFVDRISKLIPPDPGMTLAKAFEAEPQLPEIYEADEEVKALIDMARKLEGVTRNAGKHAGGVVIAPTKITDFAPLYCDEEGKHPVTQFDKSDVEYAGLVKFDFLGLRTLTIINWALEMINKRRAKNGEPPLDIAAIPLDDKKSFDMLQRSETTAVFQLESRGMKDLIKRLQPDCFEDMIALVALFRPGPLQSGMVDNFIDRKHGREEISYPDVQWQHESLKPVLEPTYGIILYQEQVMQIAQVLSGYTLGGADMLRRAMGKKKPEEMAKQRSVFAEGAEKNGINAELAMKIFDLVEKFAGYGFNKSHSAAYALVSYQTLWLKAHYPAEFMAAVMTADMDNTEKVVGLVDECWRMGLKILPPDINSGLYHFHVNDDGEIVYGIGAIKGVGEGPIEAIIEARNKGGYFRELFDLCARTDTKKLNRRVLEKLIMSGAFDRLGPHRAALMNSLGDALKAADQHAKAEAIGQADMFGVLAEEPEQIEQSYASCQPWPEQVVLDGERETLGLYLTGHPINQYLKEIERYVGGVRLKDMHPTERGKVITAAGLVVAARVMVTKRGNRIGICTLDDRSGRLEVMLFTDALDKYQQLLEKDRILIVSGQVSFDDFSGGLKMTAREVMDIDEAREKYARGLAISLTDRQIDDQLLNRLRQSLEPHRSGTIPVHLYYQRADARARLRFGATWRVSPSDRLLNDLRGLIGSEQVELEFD
Assay: In vitro DnaE single enzyme assay (E. coli)
Assay type: biochemical
Details: read-out: E. coli DnaE IC50 (converted)
Method: Plasmids encoding EcDnaE (E. coli DnaE residues 1-1160) and SaDnaE (S. aureus DnaE residues 1-1065) with 6×His N-terminal tags, were overexpressed in BL21(DE3) and BL21-AI cells (Invitrogen), respectively. Cells were grown in LB media to an OD ˜0.45 pelleted and then resuspended in Minimal Media, as described in Pryor et al. (1997, Protein Expr Purif. 10:309-19), and inducer (0.4 mM IPTG or 0.2% arabinose) for 21 hours at 18° C. at 220 rpm. […]
Can you tell me IC50 for the items I'm about to list?

GET /value?item= CO[C@H]1CC2C=C[C@H]3[C@H]4O[C@]2(/C(C)=C/[C@@H](C)[C@@H]([C@@H](C)OC(=O)C[n+]2ccccc2)OC1=O)[C@@H]3[C@H](O)[C@@H](C)[C@H]4OC(=O)c1ccc[nH]1 (stereo partly shown) &field=IC50 returns 18.9 µM

IC50 recorded for this molecule, `CO[C@H]1C[C@H]2C=C[C@H]3[C@H]4O[C@]2(/C(C)=C/[C@@H](C)[C@@H]([C@@H](C)O)OC1=O)[C@@H]3[C@H](O)[C@@H](C)[C@H]4OC(=O)c1cccn1C` , is > 189 µM

// `CO[C@H]1C[C@H]2C=C[C@H]3[C@H]4O[C@]2(/C(C)=C/[C@@H](C)[C@@H]([C@@H](C)O)OC1=O)[C@@H]3[C@H](OC(N)=O)[C@@H](C)[C@H]4O` : IC50 value = > 215 µM

Lookup result for `CO[C@H]1C[C@H]2C=C[C@H]3[C@H]4O[C@]2(/C(C)=C/[C@@H](C)[C@@H]([C@@H](C)O)OC1=O)[C@@H]3[C@H](O)[C@@H](C)[C@H]4OC(=O)c1ccc(Cl)[nH]1` ; measured IC50: 49.1 µM
